Measured IC50 by item
Study Target: Serine/threonine-protein kinase B-raf (Homo sapiens, UniProt P15056, V600E)
Sequence (P15056 2-766 V600E limits assumed): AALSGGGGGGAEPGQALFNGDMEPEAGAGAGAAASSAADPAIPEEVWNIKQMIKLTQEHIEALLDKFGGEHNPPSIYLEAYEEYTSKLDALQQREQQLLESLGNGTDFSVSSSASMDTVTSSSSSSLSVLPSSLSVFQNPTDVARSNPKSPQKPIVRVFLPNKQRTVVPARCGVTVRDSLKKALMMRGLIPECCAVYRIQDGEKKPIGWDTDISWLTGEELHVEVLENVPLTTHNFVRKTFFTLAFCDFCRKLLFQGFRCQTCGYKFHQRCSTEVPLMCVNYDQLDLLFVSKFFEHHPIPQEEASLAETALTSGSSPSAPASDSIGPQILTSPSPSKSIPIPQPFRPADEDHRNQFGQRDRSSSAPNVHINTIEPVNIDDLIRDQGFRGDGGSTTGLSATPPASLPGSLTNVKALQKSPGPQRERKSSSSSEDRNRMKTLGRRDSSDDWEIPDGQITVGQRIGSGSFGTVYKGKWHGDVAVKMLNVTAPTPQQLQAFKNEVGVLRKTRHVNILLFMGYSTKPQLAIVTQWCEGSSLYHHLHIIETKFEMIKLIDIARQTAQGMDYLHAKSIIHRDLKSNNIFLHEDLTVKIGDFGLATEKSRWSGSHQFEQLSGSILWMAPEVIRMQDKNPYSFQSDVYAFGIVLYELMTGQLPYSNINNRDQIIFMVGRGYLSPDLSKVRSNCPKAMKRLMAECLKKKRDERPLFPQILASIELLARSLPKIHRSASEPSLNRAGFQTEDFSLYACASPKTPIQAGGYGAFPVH
Test Details: Inhibition of recombinant human B-RAF V600E mutant using Ser/Thr3 as substrate after 1 hr by FRET-based Z'-Lyte assay

{"Input Smiles": "COc1n[nH]c2ncc(C#Cc3c(F)ccc(NS(=O)(=O)c4cccc(C)c4)c3F)cc12", "Study Target": "Serine/threonine-protein kinase B-raf (Homo sapiens, UniProt P15056, V600E)", "IC50": "> 10 µM"}
{"Input Smiles": "COc1n[nH]c2ncc(C#Cc3c(F)ccc(NS(=O)(=O)c4cccc(C#N)c4)c3F)cc12", "Study Target": "Serine/threonine-protein kinase B-raf (Homo sapiens, UniProt P15056, V600E)", "IC50": "> 3 µM"}
{"Input Smiles": "COc1n[nH]c2ncc(C#Cc3c(F)ccc(NS(=O)(=O)c4ccccc4)c3F)cc12", "Study Target": "Serine/threonine-protein kinase B-raf (Homo sapiens, UniProt P15056, V600E)", "IC50": "0.169 µM"}
{"Input Smiles": "COc1n[nH]c2ncc(C#Cc3c(F)ccc(NS(=O)(=O)c4cccc(Cl)c4)c3F)cc12", "Study Target": "Serine/threonine-protein kinase B-raf (Homo sapiens, UniProt P15056, V600E)", "IC50": "0.902 µM"}

stdin: State its IC50: COc1n[nH]c2ncc(C#Cc3c(F)ccc(NS(=O)(=O)c4ccc(Cl)cc4)c3F)cc12
stdout: > 10 µM

====

Study Target: Mast/stem cell growth factor receptor Kit (Homo sapiens, UniProt P10721, V559D)
Sequence (P10721 26-976 V559D limits assumed): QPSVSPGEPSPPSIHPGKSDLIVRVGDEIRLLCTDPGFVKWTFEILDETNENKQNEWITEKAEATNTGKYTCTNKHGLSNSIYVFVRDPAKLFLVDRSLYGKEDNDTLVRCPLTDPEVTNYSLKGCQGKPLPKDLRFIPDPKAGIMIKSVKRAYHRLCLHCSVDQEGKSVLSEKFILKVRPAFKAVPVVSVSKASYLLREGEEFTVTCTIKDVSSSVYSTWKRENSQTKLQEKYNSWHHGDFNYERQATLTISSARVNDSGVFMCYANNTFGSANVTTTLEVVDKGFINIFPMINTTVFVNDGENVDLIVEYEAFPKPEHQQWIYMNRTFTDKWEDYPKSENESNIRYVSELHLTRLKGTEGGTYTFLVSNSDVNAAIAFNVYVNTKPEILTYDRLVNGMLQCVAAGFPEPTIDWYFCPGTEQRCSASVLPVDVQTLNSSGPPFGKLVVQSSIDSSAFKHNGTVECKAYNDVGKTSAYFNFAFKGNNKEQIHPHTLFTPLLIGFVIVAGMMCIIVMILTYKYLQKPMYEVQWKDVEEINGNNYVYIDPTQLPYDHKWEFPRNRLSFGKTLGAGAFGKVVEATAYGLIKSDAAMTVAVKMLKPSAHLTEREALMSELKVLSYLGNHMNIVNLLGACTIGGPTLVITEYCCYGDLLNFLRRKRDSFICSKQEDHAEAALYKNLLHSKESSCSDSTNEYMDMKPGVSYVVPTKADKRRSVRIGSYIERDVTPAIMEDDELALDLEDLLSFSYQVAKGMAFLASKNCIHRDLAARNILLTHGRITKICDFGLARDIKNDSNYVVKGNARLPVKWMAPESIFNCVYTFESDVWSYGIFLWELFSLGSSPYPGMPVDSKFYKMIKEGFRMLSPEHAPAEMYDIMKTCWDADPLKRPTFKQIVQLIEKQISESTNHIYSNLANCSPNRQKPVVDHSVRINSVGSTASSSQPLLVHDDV
Test Details: Binding affinity to partial length human KIT V559D mutant expressed in Escherichia coli BL21 by active-site-dependent competition assay
Assay Endpoint: Kd
In your response, put the unit directly after the numeric value.

stdin: Recall and state the measured Kd for COc1n[nH]c2ncc(C#Cc3c(F)ccc(NS(=O)(=O)c4cccc(C#N)c4)c3F)cc12 .
stdout: 180 nM

====

Test Details: Half life in Sprague-Dawley rat at 10 mg/kg, po by HPLC/MS analysis
Assay type: ADME, organism-based
Particulars: in vivo
Assay Endpoint: half-life (min)
Report the value in min with no unit label.

stdin: Tell me measured half-life for COc1n[nH]c2ncc(C#Cc3c(F)ccc(NS(=O)(=O)c4cccc(C#N)c4)c3F)cc12 please.
stdout: 2080

====

The following molecules are shown together with reported pIC50 values.
Study Target: Serine/threonine-protein kinase B-raf (Homo sapiens)
Test Details: Inhibition of wild type GST-tagged recombinant human full-length B-RAF expressed in baculovirus expression system using Ser/Thr3 as substrate after 1 hr by FRET-based Z'-Lyte assay
pIC50: −log10 of the molar value.

{"Input Smiles": "COc1n[nH]c2ncc(C#Cc3c(F)ccc(NS(=O)(=O)c4cccc(Cl)c4)c3F)cc12", "Study Target": "Serine/threonine-protein kinase B-raf (Homo sapiens)", "pIC50": "< 5.22"}
{"Input Smiles": "COc1n[nH]c2ncc(C#Cc3c(F)ccc(NS(=O)(=O)c4ccccc4)c3F)cc12", "Study Target": "Serine/threonine-protein kinase B-raf (Homo sapiens)", "pIC50": "< 5.00"}
{"Input Smiles": "COc1n[nH]c2ncc(C#Cc3c(F)ccc(NS(=O)(=O)c4cccc(Br)c4)c3F)cc12", "Study Target": "Serine/threonine-protein kinase B-raf (Homo sapiens)", "pIC50": "< 6.00"}
{"Input Smiles": "COc1cccc(S(=O)(=O)Nc2ccc(F)c(C#Cc3cnc4[nH]nc(OC)c4c3)c2F)c1", "Study Target": "Serine/threonine-protein kinase B-raf (Homo sapiens)", "pIC50": "< 6.00"}
{"Input Smiles": "COc1n[nH]c2ncc(C#Cc3c(F)ccc(NS(=O)(=O)c4ccccc4Cl)c3F)cc12", "Study Target": "Serine/threonine-protein kinase B-raf (Homo sapiens)", "pIC50": "< 6.00"}
{"Input Smiles": "COc1n[nH]c2ncc(C#Cc3c(F)ccc(NS(=O)(=O)c4cccc(C#N)c4)c3F)cc12", "Study Target": "Serine/threonine-protein kinase B-raf (Homo sapiens)", "pIC50": "< 6.00"}

stdin: Retrieve pIC50 measured for COc1n[nH]c2ncc(C#Cc3c(F)ccc(NS(=O)(=O)c4cccc(Cl)c4Cl)c3F)cc12 and print it.
stdout: < 5.70

stdin: Item COc1n[nH]c2ncc(C#Cc3c(F)ccc(NS(=O)(=O)c4cccc(C)c4)c3F)cc12 : provide pIC50
stdout: < 5.00

stdin: State its pIC50 for this molecule: CC(C)Oc1n[nH]c2ncc(C#Cc3c(F)ccc(NS(=O)(=O)c4cccc(Cl)c4)c3F)cc12
stdout: < 5.00

stdin: Specify reported pIC50 for the molecule shown: O=S(=O)(Nc1ccc(F)c(C#Cc2cnc3[nH]ccc3c2)c1F)c1cccc(Cl)c1
stdout: < 5.00

stdin: Tell us which pIC50 value is on record for Cn1ncc2cc(C#Cc3c(F)ccc(NS(=O)(=O)c4cccc(Cl)c4)c3F)cnc21
stdout: < 5.00

stdin: Give the reported value of pIC50 for this record: COc1n[nH]c2ncc(C#Cc3c(F)ccc(NS(=O)(=O)c4ccc(Cl)cc4)c3F)cc12
stdout: < 6.00

stdin: Please supply the value of reported pIC50 for the item O=S(=O)(Nc1ccc(F)c(C#Cc2cnc3[nH]ncc3c2)c1F)c1cccc(Cl)c1
stdout: < 5.30

stdin: Read off the recorded pIC50 for O=S(=O)(Nc1ccc(F)c(C#Cc2cnc3[nH]nc(OC4CCCC4)c3c2)c1F)c1cccc(Cl)c1
stdout: < 5.00

stdin: Could you please provide reported pIC50 for O=S(=O)(Nc1ccc(F)c(C#Cc2ccc3[nH]ncc3c2)c1F)c1cccc(Cl)c1 ? Thanks!
stdout: < 5.00

====

Study Target: Serine/threonine-protein kinase B-raf (Homo sapiens, UniProt P15056, V600E)
Test Details: Inhibition of recombinant human B-RAF V600E mutant using Ser/Thr3 as substrate after 1 hr by FRET-based Z'-Lyte assay
Catalogue of IC50 readings, one per entry.

Use these answered entries as a reference point.
{"Input Smiles": "COc1cccc(S(=O)(=O)Nc2ccc(F)c(C#Cc3cnc4[nH]nc(OC)c4c3)c2F)c1", "Study Target": "Serine/threonine-protein kinase B-raf (Homo sapiens, UniProt P15056, V600E)", "IC50": "> 7 µM"}
{"Input Smiles": "CC(C)Oc1n[nH]c2ncc(C#Cc3c(F)ccc(NS(=O)(=O)c4cccc(Cl)c4)c3F)cc12", "Study Target": "Serine/threonine-protein kinase B-raf (Homo sapiens, UniProt P15056, V600E)", "IC50": "> 2 µM"}
{"Input Smiles": "O=S(=O)(Nc1ccc(F)c(C#Cc2cnc3[nH]ncc3c2)c1F)c1cccc(Cl)c1", "Study Target": "Serine/threonine-protein kinase B-raf (Homo sapiens, UniProt P15056, V600E)", "IC50": "> 10 µM"}
{"Input Smiles": "O=S(=O)(Nc1ccc(F)c(C#Cc2cnc3[nH]nc(OC4CCCC4)c3c2)c1F)c1cccc(Cl)c1", "Study Target": "Serine/threonine-protein kinase B-raf (Homo sapiens, UniProt P15056, V600E)", "IC50": "> 10 µM"}

stdin: # return recorded IC50 for input COc1n[nH]c2ncc(C#Cc3c(F)ccc(NS(=O)(=O)c4cccc(Br)c4)c3F)cc12
stdout: > 1 µM

stdin: Write down IC50 measured for item COc1n[nH]c2ncc(C#Cc3c(F)ccc(NS(=O)(=O)c4ccccc4Cl)c3F)cc12
stdout: > 1 µM

====

Study Target: Mitogen-activated protein kinase kinase kinase 20 (Homo sapiens)
Sequence (Q9NYL2 whole entry): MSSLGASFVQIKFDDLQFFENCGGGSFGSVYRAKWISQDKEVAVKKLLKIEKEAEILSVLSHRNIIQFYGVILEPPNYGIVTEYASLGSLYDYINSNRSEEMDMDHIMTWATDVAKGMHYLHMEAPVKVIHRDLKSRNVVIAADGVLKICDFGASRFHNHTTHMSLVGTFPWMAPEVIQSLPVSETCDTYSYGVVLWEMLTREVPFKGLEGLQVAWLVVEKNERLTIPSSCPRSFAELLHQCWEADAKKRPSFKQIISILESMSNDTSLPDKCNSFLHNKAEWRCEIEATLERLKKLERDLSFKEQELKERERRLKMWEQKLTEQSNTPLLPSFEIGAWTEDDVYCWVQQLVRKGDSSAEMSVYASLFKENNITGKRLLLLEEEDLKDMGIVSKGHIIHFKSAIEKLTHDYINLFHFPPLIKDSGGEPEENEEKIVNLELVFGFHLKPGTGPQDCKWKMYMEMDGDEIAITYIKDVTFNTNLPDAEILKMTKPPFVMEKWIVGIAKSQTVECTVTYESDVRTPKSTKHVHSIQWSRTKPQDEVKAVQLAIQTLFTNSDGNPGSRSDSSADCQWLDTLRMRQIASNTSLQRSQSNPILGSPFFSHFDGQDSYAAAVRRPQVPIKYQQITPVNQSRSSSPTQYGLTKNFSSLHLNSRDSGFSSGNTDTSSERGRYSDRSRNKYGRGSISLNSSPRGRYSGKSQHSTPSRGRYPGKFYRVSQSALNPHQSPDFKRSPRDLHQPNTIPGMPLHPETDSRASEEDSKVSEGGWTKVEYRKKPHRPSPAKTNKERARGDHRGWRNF
Test Details: Binding affinity to partial length human ZAK expressed in Escherichia coli BL21 by active-site-dependent competition assay
Assay Endpoint: pKd
By convention, pKd is the negative base-10 log of a molar concentration.

stdin: Provide pKd, system Mitogen-activated protein kinase kinase kinase 20 (Homo sapiens), entry COc1n[nH]c2ncc(C#Cc3c(F)ccc(NS(=O)(=O)c4cccc(C#N)c4)c3F)cc12
stdout: 8.57

====

Test Details: Oral bioavailability in Sprague-Dawley rat at 10 mg/kg by HPLC/MS analysis
Type: ADME, organism-based
Particulars: in vivo
Assay Endpoint: bioavailability (%)
Number only, in %; omit the unit.

stdin: Note down bioavailability recorded for COc1n[nH]c2ncc(C#Cc3c(F)ccc(NS(=O)(=O)c4cccc(C#N)c4)c3F)cc12
stdout: 20

====

Study Target: Tyrosine-protein kinase FRK (Homo sapiens)
Sequence (P42685 whole entry): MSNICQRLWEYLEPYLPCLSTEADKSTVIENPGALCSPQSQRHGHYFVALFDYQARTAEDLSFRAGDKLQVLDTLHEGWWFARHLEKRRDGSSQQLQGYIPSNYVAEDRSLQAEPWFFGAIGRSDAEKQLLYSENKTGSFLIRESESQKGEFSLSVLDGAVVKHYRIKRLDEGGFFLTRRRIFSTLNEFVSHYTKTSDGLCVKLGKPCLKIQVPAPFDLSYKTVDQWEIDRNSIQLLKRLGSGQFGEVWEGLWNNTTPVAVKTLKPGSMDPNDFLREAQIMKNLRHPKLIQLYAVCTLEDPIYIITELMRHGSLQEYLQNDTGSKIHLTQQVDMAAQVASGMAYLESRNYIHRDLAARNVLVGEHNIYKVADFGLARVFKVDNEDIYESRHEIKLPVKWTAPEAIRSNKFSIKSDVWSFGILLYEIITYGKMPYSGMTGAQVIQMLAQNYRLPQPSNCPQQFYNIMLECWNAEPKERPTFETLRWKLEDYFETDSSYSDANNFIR
Test Details: Binding affinity to partial length human FRK expressed in Escherichia coli BL21 by active-site-dependent competition assay
Assay Endpoint: pKd
When answering, recall that pKd equals minus log10 of the concentration in mol/L, and write that number alone.

stdin: State its pKd for this compound: COc1n[nH]c2ncc(C#Cc3c(F)ccc(NS(=O)(=O)c4cccc(C#N)c4)c3F)cc12
stdout: 7.66

====

Study Target: Serine/threonine-protein kinase B-raf (Homo sapiens, UniProt P15056, V600E)
Test Details: Binding affinity to partial length human BRAF V600E mutant expressed in HEK293 cells by active-site-dependent competition assay
Assay Endpoint: Kd (nM)
Give the number; nM is assumed, so skip it.

stdin: Assign Kd to the following record: COc1n[nH]c2ncc(C#Cc3c(F)ccc(NS(=O)(=O)c4cccc(C#N)c4)c3F)cc12
stdout: 50
